Molecular target: Dbp5 (Saccharomyces cerevisiae, UniProt P20449)
Construct: full-length, N-terminal 6xHis tag, expressed in E. coli
Sequence (P20449 1-482): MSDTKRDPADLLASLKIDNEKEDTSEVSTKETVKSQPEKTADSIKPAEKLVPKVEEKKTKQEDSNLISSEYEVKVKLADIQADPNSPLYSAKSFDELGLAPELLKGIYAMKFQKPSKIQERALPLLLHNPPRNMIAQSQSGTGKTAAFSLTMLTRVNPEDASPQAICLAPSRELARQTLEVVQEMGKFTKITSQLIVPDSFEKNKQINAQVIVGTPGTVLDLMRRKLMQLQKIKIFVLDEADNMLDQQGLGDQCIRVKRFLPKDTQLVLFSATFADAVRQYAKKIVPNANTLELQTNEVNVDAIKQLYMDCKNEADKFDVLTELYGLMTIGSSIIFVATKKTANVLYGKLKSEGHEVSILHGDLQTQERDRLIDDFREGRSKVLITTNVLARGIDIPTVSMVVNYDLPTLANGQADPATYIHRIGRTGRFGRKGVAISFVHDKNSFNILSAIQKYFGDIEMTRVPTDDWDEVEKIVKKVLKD
Assay: kinetic competition with mantADP, FRET stopped flow
Assay type: binding
Settings: no RNA; 30 mM Hepes pH 7.5, 100 mM KCl, 2 mM MgCl2, 2 mM DTT, 25 °C
readout-type: Kd (µM)
Give a bare numeral; the unit µM is implied.

Consider Nc1ncnc2c1ncn2[C@@H]1O[C@H](COP(=O)(O)OP(=O)(O)O)[C@@H](O)[C@H]1O . Its measured Kd is 360

====

Target: Dbp5 (Saccharomyces cerevisiae)
Construct: full-length, N-terminal 6xHis tag, expressed in E. coli
Assay: FRET stopped flow, total fluorescence amplitude
Type: binding
readout-type: pKd
The scale used: pKd is minus the common logarithm of the concentration in molar units.

// sample CNc1ccccc1C(=O)O[C@H]1[C@@H](O)[C@H](n2cnc3c(N)ncnc32)O[C@@H]1CO[P@@](=O)(O)O[P@](=O)(O)OP(=O)(O)O , its pKd was 6.00

====

Target: Dbp5 (Saccharomyces cerevisiae)
Construct: full-length, N-terminal 6xHis tag, expressed in E. coli
Assay: transient Pi release lag phase, phosphate binding protein (PiBiP), stopped flow
Type: biochemical
Conditions: no RNA; 30 mM Hepes pH 7.5, 100 mM KCl, 2 mM MgCl2, 2 mM DTT, 25 °C; ATP dissociation constant from lag-phase dependence; also determined by mant-nucleotide competition
readout-type: pKd
Just the number, please; pKd means minus log10 of the concentration in mol/L.

Short answer for Nc1ncnc2c1ncn2[C@@H]1O[C@H](COP(=O)(O)OP(=O)(O)OP(=O)(O)O)[C@@H](O)[C@H]1O : pKd was 2.40
